molecular target: HLA-C*04:01; test: thermal melting temperature (Tm) of peptide-HLA complex; higher = more thermostable pHLA complex; details: C1R-B*07:02
Known thermal melting temperature of a selection of sequences
Measurement type: thermal melting temperature (°C)

sequence_input=FYDLYGGEKF measurement_type="thermal melting temperature" val=48.5
sequence_input=IWEPLAVKL measurement_type="thermal melting temperature" val=47.2
sequence_input=VLDDKDYFL measurement_type="thermal melting temperature" val=42.4
sequence_input=HFDPEVYL measurement_type="thermal melting temperature" val=53.2
sequence_input=NYDEHISNF measurement_type="thermal melting temperature" val=48.9
sequence_input=TFDVAPSRL measurement_type="thermal melting temperature" val=52.4
sequence_input=LYDVPANSM measurement_type="thermal melting temperature" val=57.6
sequence_input=MFDKDVVML measurement_type="thermal melting temperature" val=54.6
sequence_input=GGSFDVADRMF measurement_type="thermal melting temperature" val=53.2
sequence_input=VTDPRVVDL measurement_type="thermal melting temperature" val=52.7
sequence_input=TYEGKPIFL measurement_type="thermal melting temperature" val=51.5
sequence_input=SFDSALQSV measurement_type="thermal melting temperature" val=60.7
sequence_input=HFDLSVIEL measurement_type="thermal melting temperature" val=60.5
sequence_input=FLPEAPAEL measurement_type="thermal melting temperature" val=55.9
sequence_input=SYDHVELTF measurement_type="thermal melting temperature" val=51.9
sequence_input=NYDFGPIHM measurement_type="thermal melting temperature" val=55.8
sequence_input=AWDIAIATM measurement_type="thermal melting temperature" val=49.6
